Please consider the recorded IC50 for cAMP and cAMP-inhibited cGMP 3',5'-cyclic phosphodiesterase 10A (Rattus norvegicus) in what follows.

smilesCode	IC50, nM
c1ccc2cc(N3CCC(Oc4nccnc4C4CCOCC4)CC3)ncc2c1	235
Cc1ccc2nc(N3CCC(Oc4ncccc4C4CCOCC4)CC3)ccc2c1	472
COc1ccccc1-c1nccnc1OC1CN(c2ccc3ccccc3n2)C1	150
O=C(c1nc2ccccc2[nH]1)N1CC[C@@H](Oc2ncccc2C2CCOCC2)C1	1820
c1ccc2[nH]c(N3CC[C@@H](Oc4nccnc4C4CCOCC4)C3)nc2c1	306
CC(=O)N1CCC(c2cccnc2OC2CCN(c3cccc(C)n3)CC2)CC1	1180
Cc1cccc(N2CCC(Oc3nccnc3C3CCOCC3)CC2)n1	1440
c1ccc(N2CCC(Oc3nccnc3C3CCOCC3)CC2)nc1	2390
COC(=O)C1CCN(c2ncc(Br)c(OC3CN(c4ccc5ccccc5n4)C3)n2)CC1	1340
CC(C)(C)OC(=O)N1CCC(c2nc3ccccc3nc2OC2CN(c3ccc4ccccc4n3)C2)CC1	115

----------
Recorded IC50 for the following compounds
# testedOn: cAMP and cAMP-inhibited cGMP 3',5'-cyclic phosphodiesterase 10A (Rattus norvegicus, UniProt Q9QYJ6)

compound	IC50
c1ccc2nc(N3CC(Oc4nccnc4N4CCCOCC4)C3)ccc2c1	44.6 nM
OCC1CN(c2nccnc2OC2CN(c3ccc4ccccc4n3)C2)CCO1 (stereo not given)	88.6 nM
Cc1cccc(N2CCC(Oc3ncccc3C3CCOCC3)CC2)n1	1670 nM
CC(=O)N1CCCC(c2cccnc2OC2CN(C(=O)c3nc4ccccc4[nH]3)C2)C1 (stereo not given)	6.47 nM
CC(=O)N1CC2(C1)CN(c1nccnc1OC1CCN(c3ccc4ccccc4n3)CC1)C2	1270 nM
OC1CCN(c2nccnc2OC2CCN(c3ccc4ccccc4n3)CC2)CC1	198 nM
CC(=O)N1CCC(c2nccnc2OC2CCN(c3ncccc3Cl)CC2)CC1	1440 nM
Clc1cnccc1-c1nccnc1OC1CN(c2ccc3ccccc3n2)C1	155 nM
c1cnc(OC2CN(c3ccc4ccccc4n3)C2)c(C2CCOCC2)c1	1800 nM
CC(=O)N1CCC(c2nccnc2OC2CCN(c3cc(C)ccn3)CC2)CC1	997 nM

----------
# testedOn: cAMP and cAMP-inhibited cGMP 3',5'-cyclic phosphodiesterase 10A (Rattus norvegicus, UniProt Q9QYJ6)
pIC50: −log10 of the molar value.
# pIC50 >= 6 gives y, anything below gives n

molecule	qualitativeLabel
Cc1cccc2ccc(N3CCC(Oc4nccnc4C4CCOCC4)CC3)nc12	n
CC(=O)N1CCC(c2nccnc2OC2CCN(c3ccccn3)CC2)CC1	n
CC(=O)N1CCC(c2cccnc2OC2CCN(c3ncccc3Cl)CC2)CC1	n
CC(=O)N1CCC(c2nccnc2OC2CCN(c3cccc(Cl)n3)CC2)CC1	y
O=C1CCC(c2nccnc2OC2CN(C(=O)c3nc4ccccc4[nH]3)C2)CC1	y
CC(O)C1CCN(c2nccnc2OC2CN(c3ccc4ccccc4n3)C2)CC1 (stereo not given)	y
CC(=O)N1CCC(c2nccnc2OC2CCN(c3ncccc3C)CC2)CC1	n
c1ccc2nc(N3CCC(Oc4nccnc4N4CCOCC4)CC3)ccc2c1	y
OCc1cccc(-c2nccnc2OC2CN(c3ccc4ccccc4n3)C2)c1	y
c1ccc(Cc2ccc3oc(-c4nccnc4OC4CN(c5ccc6ccccc6n5)C4)cc3c2)cc1	y

----------
# testedOn: cAMP and cAMP-inhibited cGMP 3',5'-cyclic phosphodiesterase 10A (Rattus norvegicus)
Classification scheme (IC50): low = under 40 nM, mid = from 40 nM up to 400 nM, high = 400 nM and over

compound	qualitativeLabel
COc1cccc(-c2cnc(N3CCC(CO)CC3)nc2OC2CN(c3ccc4ccccc4n3)C2)c1	low
CC(=O)N1CCC(c2cccnc2OC2CCN(c3ccc(Cl)cn3)CC2)CC1	high
c1ccc2c(N3CC[C@@H](Oc4nccnc4C4CCOCC4)C3)nccc2c1	high
Cc1ccc(-c2cnc(N3CCC(CO)CC3)nc2OC2CN(c3ccc4ccccc4n3)C2)cn1	low
Fc1ccc(-c2nccnc2OC2CN(c3ccc4ccccc4n3)C2)cn1	mid
CC1CCN(c2ncc(Br)c(OC3CN(c4ccc5ccccc5n4)C3)n2)CC1	mid
OCC1CCN(c2nccnc2O[C@H]2CCN(c3ccc4ccccc4n3)C2)CC1	mid
Nc1ccc(N2CCC(Oc3ncccc3C3CCOCC3)CC2)nc1	high
CC(=O)N1CCCC(c2cccnc2OC2CN(C(=O)c3ccc(C)nc3)C2)C1 (stereo not drawn)	high
OCC1CCN(c2cncc(OC3CN(c4ccc5ccccc5n4)C3)n2)CC1	low
c1ccc2nc(N3CCC(Oc4nccnc4-c4ccncc4)CC3)ccc2c1	low
OCC1CCN(c2nccnc2OC2CN(c3ccc4ccccc4n3)C2)CC1	low
CC(=O)N1CCC(c2cccnc2OC2CCN(c3cccc(Cl)n3)CC2)CC1	high
CC(=O)N1CC=C(c2nccnc2OC2CN(C(=O)c3ccc(C)cn3)C2)CC1	high
CC(=O)N1CCC(c2nccnc2OC2CCN(c3cccc(C)n3)CC2)CC1	high
OCC1CCN(c2nccnc2NC2CN(c3ccc4ccccc4n3)C2)CC1	low
O=C(c1nc2ccccc2[nH]1)N1CC(Oc2cnccn2)C1	high
CC(C)(C)OC(=O)N1C=C(c2nccnc2OC2CN(C(=O)c3nc4ccccc4[nH]3)C2)CCC1	low
OC1CCN(c2nccnc2OC2CN(c3ccc4ccccc4n3)C2)C1 (stereo not drawn)	mid
COc1cnccc1-c1cccnc1OC1CN(C(=O)OCc2ccccc2)C1	high
c1ccc2nc(N3CC(Oc4nccnc4N4CCC4)C3)ccc2c1	mid
CC(=O)N1CCC=C(c2nccnc2OC2CN(C(=O)c3nc4ccccc4[nH]3)C2)C1	mid
O[C@@H]1CCN(c2nccnc2OC2CCN(c3ccc4ccccc4n3)CC2)C1	mid
COc1ccc(-c2nccnc2OC2CN(c3ccc4ccccc4n3)C2)cn1	low
COc1cccc(-c2nccnc2OC2CN(c3ncc4ccccc4n3)C2)c1	mid
OCC1CCN(c2ncc(Br)c(OC3CN(c4ccc5ccccc5n4)C3)n2)C1 (stereo not drawn)	low
Clc1cnccc1-c1nccnc1OC1CCN(c2ccc3ccccc3n2)CC1	mid
COc1ncccc1-c1nc2ccccc2nc1OC1CN(c2ccc3ccccc3n2)C1	low
OC1CCN(c2nccnc2OC2CN(c3ccc4ccccc4n3)C2)CC1	low
CN1CCN(c2nccnc2OC2CN(c3ccc4ccccc4n3)C2)CC1=O	low
c1ccc(-c2ccc(-c3nccnc3OC3CN(c4ccc5ccccc5n4)C3)s2)cc1	mid
Cc1cc(-c2nccnc2OC2CN(c3ccc4ccccc4n3)C2)ccn1	low
COc1ncccc1-c1nccnc1OC1CCN(c2ccc3ccccc3n2)CC1	mid
N#CC1CCN(c2cccnc2OC2CN(c3ccc4ccccc4n3)C2)CC1	mid
O=C(OCc1ccccc1)N1CCC(c2nc3ccccc3nc2OC2CN(c3ccc4ccccc4n3)C2)CC1	mid
O=C(c1ccncn1)N1CC(Oc2ncccc2C2=CCOCC2)C1	high
Cc1cccc(-c2nc3ccccc3nc2OC2CN(c3ccc4ccccc4n3)C2)c1	mid
c1cnc(O[C@@H]2CCN(c3nccc4ccccc34)C2)c(C2CCOCC2)c1	high
Cc1cc(F)ccc1-c1nccnc1OC1CN(c2ccc3ccccc3n2)C1	high
OC[C@H]1CCCN1c1nccnc1OC1CN(c2ccc3ccccc3n2)C1	mid

----------
# testedOn: UniProtKB Q9QYJ6
# Sequence (Q9QYJ6 whole entry): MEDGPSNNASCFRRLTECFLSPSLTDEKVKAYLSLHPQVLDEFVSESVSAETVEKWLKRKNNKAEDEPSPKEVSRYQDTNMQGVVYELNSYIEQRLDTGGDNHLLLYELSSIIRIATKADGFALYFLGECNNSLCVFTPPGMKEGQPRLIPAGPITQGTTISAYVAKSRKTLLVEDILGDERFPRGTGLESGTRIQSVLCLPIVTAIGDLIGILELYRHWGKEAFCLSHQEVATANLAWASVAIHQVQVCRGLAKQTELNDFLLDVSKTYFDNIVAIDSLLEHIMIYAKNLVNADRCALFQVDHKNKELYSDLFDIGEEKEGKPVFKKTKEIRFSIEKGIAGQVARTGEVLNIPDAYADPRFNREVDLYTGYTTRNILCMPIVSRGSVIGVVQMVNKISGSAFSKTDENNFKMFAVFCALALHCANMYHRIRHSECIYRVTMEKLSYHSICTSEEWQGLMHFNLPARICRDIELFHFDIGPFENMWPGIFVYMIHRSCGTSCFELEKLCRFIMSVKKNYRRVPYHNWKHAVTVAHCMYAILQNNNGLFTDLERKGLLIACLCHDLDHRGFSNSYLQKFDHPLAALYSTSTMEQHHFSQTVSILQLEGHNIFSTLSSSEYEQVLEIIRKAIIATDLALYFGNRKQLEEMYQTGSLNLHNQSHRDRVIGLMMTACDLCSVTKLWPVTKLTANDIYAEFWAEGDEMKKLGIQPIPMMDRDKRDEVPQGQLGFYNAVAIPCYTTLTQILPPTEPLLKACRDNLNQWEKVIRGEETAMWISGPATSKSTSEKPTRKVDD
Recorded IC50 for the following compounds

smilesCode	IC50 (nM)
O=C(c1nc2ccccc2[nH]1)N1CC(Oc2nccnc2C2CCOCC2)C1	884
CC1CCN(c2nccnc2OC2CN(c3ccc4ccccc4n3)C2)CC1	124
O=C(c1ccc[nH]1)N1CCC(Oc2ncccc2C2CCOCC2)CC1	4260
O=C(c1nc2ccccc2[nH]1)N1CC(Oc2nccnc2N2CCC(O)CC2)C1	186
Cc1cc(-c2nccnc2OC2CCN(C(=O)c3ccc4ccccc4n3)CC2)ccn1	2660
COc1ncccc1-c1nccnc1OC1CN(c2ncc3ccccc3n2)C1	178
c1ccc2nc(N3CC[C@@H](Oc4nccnc4C4CCOCC4)C3)ccc2c1	109
c1cnc(O[C@@H]2CCN(c3nc4ccccc4[nH]3)C2)c(C2CCOCC2)c1	3590
Cc1cc(-c2cccnc2OC2CCN(C(=O)c3nccc4ccccc34)CC2)ccn1	2130
O=C(c1nc2ccccc2[nH]1)N1CC(Oc2ncccc2C2=CCOCC2)C1	0.864
